All figures here come from the supplement of paper PMC5908809.

Test system: YT (IL-2 2.5 ng/mL)
Assay: percent inhibition of viability; higher = more inhibition;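 note: normalised to DMSO-only wells as negative and benzethonium chloride as positive control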
Settings: 72 h; 10 nM
TEST READOUT: percent inhibition of viability (%)

>>> reported("COc1cc2nccc(Oc3ccc(NC(=O)C4(C(=O)Nc5ccc(F)cc5)CC4)cc3)c2cc1OC [Cabozantinib] (max concentration tested 1000 nM)")
0.31
>>> reported("Oc1c2ccccc2c2c3c(cccc13)N=N2 (max concentration tested 100000 nM)")
-6.35
>>> reported("C/C(=C\\c1csc(C)n1)[C@@H]1C[C@@H]2O[C@]2(C)CCC[C@H](C)[C@H](O)[C@@H](C)C(=O)C(C)(C)[C@@H](O)CC(=O)N1 [Ixabepilone] (max concentration tested 1000 nM)")
-8.15
>>> reported("C[C@@H](Oc1cc(-c2cnn(C3CCNCC3)c2)cnc1N)c1c(Cl)ccc(F)c1Cl [Crizotinib] (max concentration tested 1000 nM)")
-1.87
>>> reported("CO[C@H]1C[C@@H]2CC[C@@H](C)[C@@](O)(O2)C(=O)C(=O)N2CCCC[C@H]2C(=O)O[C@H]([C@H](C)C[C@@H]2CC[C@@H](O)[C@H](OC)C2)CC(=O)[C@H](C)/C=C(\\C)[C@@H](O)[C@@H](OC)C(=O)[C@H](C)C[C@H](C)/C=C/C=C/C=C/1C [Sirolimus] (max concentration tested 100 nM)")
48.9
